Below, each entry is listed with its recorded GI50.
# Test system: breast cancer cells (MDA-MB-468)
# Protocol Notes: Cancer cell line growth inhibition, Sulforhodamine B assay, MDA-MB-468
# Type: cell-based
# Assay Setup: Homo sapiens, MDA-MB-468, MDA-MB-468 breast cancer cell line; read-out: Cancer Cell Line GI50 Range MDA-MB-468

Could you share which GI50 value was measured for Cc1cc(-c2cnn3c(NCC4CCN(C)CC4)cc(Oc4cccc(F)c4)nc23)ccc1C(=O)NC1CC1 ?
≤ 100 nM

Could you share which GI50 value was measured for CCO[C@H]1COC[C@@H]1Nc1cc(NCC2CCOCC2)n2ncc(-c3ccc(C(=O)NC4CC4)c(C)c3)c2n1 ?
100 to 500 nM

Could you share which GI50 value was measured for Cc1cc(-c2cnn3c(NCC4CCOCC4)cc(N[C@@H](C4CC4)C(C)(C)O)nc23)ccc1C(=O)NC1CC1 ?
≤ 100 nM

Could you share which GI50 value was measured for Cc1cc(-c2cnn3c(NCc4cccnc4)cc(OC4CCOCC4)nc23)ccc1C(=O)NC1CC1 ?
100 to 500 nM

Could you share which GI50 value was measured for Cc1cc(-c2cnn3c(NCC4(O)CCOCC4)cc(NC4CCOCC4)nc23)ccc1C(=O)NC1CC1 ?
> 500 nM

Could you share which GI50 value was measured for Cc1cc(-c2cnn3c(NC[C@H]4CC[C@@H](O)CC4)nc(Oc4cccc(F)c4)nc23)ccc1C(=O)NC1CC1 ?
≤ 100 nM

Could you share which GI50 value was measured for Cc1cc(-c2cnn3c(NCC4CCOCC4)cc(N[C@H]4CCN(C5COC5)C4)nc23)ccc1C(=O)NC1CC1 ?
100 to 500 nM

Could you share which GI50 value was measured for Cc1cc(-c2cnn3c(NCC4CCOCC4)nc(NC4CCCCC4)nc23)ccc1C(=O)NC1CC1 ?
100 to 500 nM

Could you share which GI50 value was measured for Cc1cc(-c2cnn3c(NCC4CCOCC4)cc(N[C@H]4COC[C@H]4O)nc23)ccc1C(=O)NC1CC1 ?
100 to 500 nM

Could you share which GI50 value was measured for COCCNc1cc(N[C@H]2CCCC[C@H]2O)nc2c(-c3ccc(C(=O)NC4CC4)c(C)c3)cnn12 ?
100 to 500 nM

Next:
Could you share which GI50 value was measured for Cc1cc(-c2cnn3c(NCC4CCOCC4)cc(N4CCC[C@@H]4CO)nc23)ccc1C(=O)NC1CC1 ?
100 to 500 nM

Could you share which GI50 value was measured for Cc1cc(-c2cnn3c(NCC4(F)CCN(C)CC4)cc(NC4CCCC4)nc23)ccc1C(=O)NC1CC1 ?
100 to 500 nM

Could you share which GI50 value was measured for CC[C@H](Nc1cc(NCC2CCOCC2)n2ncc(-c3ccc(C(=O)NC4CC4)c(C)c3)c2n1)C(C)(C)O ?
100 to 500 nM

Could you share which GI50 value was measured for Cc1cc(-c2cnn3c(NCCN4CCOCC4)cc(Oc4cccc(F)c4F)nc23)ccc1C(=O)NC1CC1 ?
≤ 100 nM

Could you share which GI50 value was measured for Cc1cc(-c2cnn3c(NCCN4CCOCC4)cc(Oc4cccc(F)c4)nc23)ccc1C(=O)NC1CC1 ?
≤ 100 nM

Could you share which GI50 value was measured for Cc1cc(-c2cnn3c(NCC4(F)CCNCC4)cc(Oc4cccc(F)c4)nc23)ccc1C(=O)NC1CC1 ?
≤ 100 nM

Could you share which GI50 value was measured for Cc1cc(-c2cnn3c(NCc4cccnc4)cc(NC4CCOCC4)nc23)ccc1C(=O)NC1CC1 ?
100 to 500 nM
